# Test system: SN12C renal
# PROCEDURE SUMMARY: NCI tumour cell line growth inhibition, 48 h
// TGI lookup, one value per entry

Examples from the recorded data:
CC1CC2=C(C1)C(C1(C)C(=O)CC3C(C1=O)C3(C)C)C(C)C2=O (stereo not given): > 100 µM
CN(C)CCc1ccc(Cl)cc1Cl: > 100 µM
COP1(=O)OCc2cnccc2O1 (stereo not given): > 100 µM

Tell me reported TGI for CCCCCCCCCCCCCCCCCCNc1ccn(C2OC(CO)C(OP(=O)(O)OCC(COP(=O)(O)OCC3OC(n4cc(F)c(NCCCCCCCCCCCCCCCCCC)nc4=O)CC3O)OC(=O)CCCCCCCCCCCCCCC)C2O)c(=O)n1 (stereo not given) , tested with SN12C renal. > 100 µM

Please state recorded TGI (tested on SN12C renal) of Cc1occc(=O)c1O 24.8 µM

###

# System: HOP-62 NSCLC
# PROCEDURE SUMMARY: NCI tumour cell line growth inhibition, 48 h
In this section, each of the compounds is paired with its reported TGI.
State the answer as a number, implicitly in µM.

The cases that follow already have their TGI on record.
C/C=C(\C)C(=O)O[C@H]1C=CC(=O)O[C@H]1CC[C@H](O)[C@H](C)O: 29.7
O=c1ssc2ncccc12: 45.5
CCCCCC(=O)N[C@H]1CCc2cc(OC)c(OC)c(OC)c2-c2ccc(SC)c(=O)cc21: 49.7
COc1ccc(C(=O)N/N=C2\C(=O)c3c(C)cc(C)cc3CC2(C)C)cc1: 37.4

Using the record for O=C(N=Nc1ccc(Br)cc1)NNc1ccc(Br)cc1 , report its TGI. 32.6

###

# System: SW-620 colon
# PROCEDURE SUMMARY: NCI tumour cell line growth inhibition, 48 h; in the data active means GI50 below about 0.43 µM; inactive means the rest
A correct response names exactly one class from active, inactive

Clc1ccc(N2CCN(CCCN3CCN(c4cccc(Cl)c4)CC3)CC2)cc1: inactive

I'd appreciate the recorded outcome for Cc1ccc(-c2cc3c(NC(=O)C4CC4)ncnc3o2)cc1 from this test. inactive

Any idea what this test logged for CN1C(=O)/C(=C/c2c(Cl)[nH]c3ccccc23)c2ccccc21 ? inactive

GET /call?item= Nc1cc(N)c2nc(-c3ccccc3)c(Sc3ccc(Cl)c(Cl)c3)nc2c1 returns the recorded outcome of this test. inactive

Short answer needed: outcome of this test for C/C=C(\C)C(=O)O[C@H]1C=CC(=O)O[C@H]1CC[C@H](O)[C@H](C)O ? inactive

What was the test verdict on CCc1c2c(nc3ccc(OC(=O)NCc4ccc(B5OC(C)(C)C(C)(C)O5)cc4)cc13)-c1cc3c(c(=O)n1C2)COC(=O)[C@]3(O)CC ? active

###

# Tested on: SK-MEL-2 melanoma
# PROCEDURE SUMMARY: NCI tumour cell line growth inhibition, 48 h
ASSAY METRIC: TGI (µM)
Numbers only; they are read as µM.

Examples from the recorded data:
O=CC1C(Cl)=Nc2nc3ccccc3n2C1c1ccc([N+](=O)[O-])cc1 (stereo not given): 21.4
COCCCN(Cc1cc(OC)c(OC)c(OC)c1)C(=S)Nc1cccc(Cl)c1: 52.1
O=C(c1ccc(Cl)c(Cl)c1)N(Cc1cccnc1)C(=S)N(Cc1cccnc1)C(=O)c1ccc(Cl)c(Cl)c1: 95.7
O=C(O[C@H]1CN[C@H](C#Cc2cc3ncnc(Nc4ccc5c(cnn5Cc5ccccc5)c4)c3s2)C1)N1CCOCC1: 19.3
CCN(CC)CCNc1ccc2ncn3c4ccccc4c(=O)c1c23: 16.3

Quick one: TGI of CCOc1cc(C(c2c(O)c3ccccc3oc2=O)c2c(O)c3ccccc3oc2=O)ccc1OC ? 42.2

# lookup: TGI of CCCCCc1cc2cc3c(c(O)c2c(=O)[nH]1)C1(CC3)C(O)=c2c(=O)c3c(=O)cc(OC)c(=O)c=3c(=O)c2=C1O (stereo not given) 3.3
